Reference source for all entries: patent US9266930

Measured binding affinity ratio (IC50 of standard peptide / IC50 of test peptide) by item
# measuredOn: HLA-DR1 (DRB1*0101) (human)
property: binding affinity ratio (IC50 of standard peptide / IC50 of test peptide)

[
  {
    "binder": "CGVWDEWSPCSVTCG (modifications not checked)",
    "numericValue": 0.0001
  },
  {
    "binder": "VVILTDGIPDSIQDS (modifications not checked)",
    "numericValue": 0.0001
  },
  {
    "binder": "VKYLVIVFLIFFDLF (modifications not checked)",
    "numericValue": 0.0001
  },
  {
    "binder": "LGNVKYLVIVFLIFF (modifications not checked)",
    "numericValue": 0.0006
  },
  {
    "binder": "CVEVEKTASCGVWDE (modifications not checked)",
    "numericValue": 0.0004
  },
  {
    "binder": "TVLLGGVGLVLYNTE (modifications not checked)",
    "numericValue": 0.49
  },
  {
    "binder": "IGPFMKAVCVEVEKT (modifications not checked)",
    "numericValue": 0.0072
  }
]
